These entries and their values trace back to paper PMC10709440.

# system under test: Drosophila OR10a (Drosophila melanogaster)
# Construct: expressed in transfected cells
# Sequence (Q9VYZ1 1-406): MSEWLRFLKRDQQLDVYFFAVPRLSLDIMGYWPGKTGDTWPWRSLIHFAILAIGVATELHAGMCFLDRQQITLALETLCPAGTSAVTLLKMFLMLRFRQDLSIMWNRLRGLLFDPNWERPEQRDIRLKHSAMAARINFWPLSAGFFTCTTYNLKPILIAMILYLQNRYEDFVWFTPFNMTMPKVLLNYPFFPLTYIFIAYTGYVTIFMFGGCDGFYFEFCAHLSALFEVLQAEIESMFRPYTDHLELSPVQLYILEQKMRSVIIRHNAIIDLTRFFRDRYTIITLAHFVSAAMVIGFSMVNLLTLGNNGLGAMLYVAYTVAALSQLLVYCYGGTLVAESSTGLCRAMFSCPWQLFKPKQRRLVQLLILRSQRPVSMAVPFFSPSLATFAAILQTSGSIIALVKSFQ
# Sequence (Q9VNB5 1-486 partner): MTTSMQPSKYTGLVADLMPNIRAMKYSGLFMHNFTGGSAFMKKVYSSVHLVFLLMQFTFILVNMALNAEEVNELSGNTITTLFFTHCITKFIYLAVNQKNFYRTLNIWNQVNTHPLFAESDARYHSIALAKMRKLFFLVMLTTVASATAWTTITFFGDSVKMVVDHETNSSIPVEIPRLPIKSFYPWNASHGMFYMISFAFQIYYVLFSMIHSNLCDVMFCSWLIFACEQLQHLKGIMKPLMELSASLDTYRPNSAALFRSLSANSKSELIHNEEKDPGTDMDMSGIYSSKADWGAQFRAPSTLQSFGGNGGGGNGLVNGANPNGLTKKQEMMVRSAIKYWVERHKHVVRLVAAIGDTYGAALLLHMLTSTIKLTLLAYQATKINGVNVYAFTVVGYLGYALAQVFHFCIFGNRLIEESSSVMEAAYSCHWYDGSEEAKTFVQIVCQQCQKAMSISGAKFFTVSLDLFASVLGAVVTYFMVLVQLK
# procedure text: Calcium ion fluorescence (GCaMP6) assay, OR10a stable HEK293 cell line
# Assay type: cell-based
# condition summary: EC50, OR10a cell line; fitted Hill equation, Hill coefficient constrained to 1, maximal response max 1
reported metric: EC50 (nM)
Numbers only, in nM.

get_value(item= COC(=O)c1ccccc1O [methyl salicylate] , readout=EC50) returns 80

###

Provide the recorded DF norm AVERAGE OR47a for the entries that follow.
# system under test: Drosophila OR47a (Drosophila melanogaster, UniProt P81921)
# Construct: expressed in transfected cells
# Sequence (P81921 whole entry, one chain of several): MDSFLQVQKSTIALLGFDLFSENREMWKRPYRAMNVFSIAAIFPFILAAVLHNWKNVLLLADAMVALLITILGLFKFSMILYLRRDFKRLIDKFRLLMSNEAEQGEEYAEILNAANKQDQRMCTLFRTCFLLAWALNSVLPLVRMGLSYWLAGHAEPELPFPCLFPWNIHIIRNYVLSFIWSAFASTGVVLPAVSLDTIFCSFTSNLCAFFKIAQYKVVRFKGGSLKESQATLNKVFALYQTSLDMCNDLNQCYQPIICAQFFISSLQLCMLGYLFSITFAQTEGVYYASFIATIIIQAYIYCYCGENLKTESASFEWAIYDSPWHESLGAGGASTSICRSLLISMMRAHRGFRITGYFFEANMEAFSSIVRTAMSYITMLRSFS
# procedure text: Calcium ion fluorescence (GCaMP6) assay, OR47a stable HEK293 cell line
# Format: cell-based
# condition summary: concentration 10; normalized fluorescence change, values below 0.05 threshold given as 0
One number for each entry.

Field: example entries. Status: answers known.
{"compound": "CCCCCC(C)=O [2-heptanone]", "reported metric": "DF norm AVERAGE OR47a", "obs value": 0.1895}
{"compound": "CC1=CCC2C(C1)C2(C)C (stereo not drawn) [3-carene]", "reported metric": "DF norm AVERAGE OR47a", "obs value": 0}
{"compound": "CCCCCC(C)O (stereo not drawn) [2-heptanol]", "reported metric": "DF norm AVERAGE OR47a", "obs value": 0.05999}
{"compound": "CCCC(O)CC (stereo not drawn) [3-hexanol]", "reported metric": "DF norm AVERAGE OR47a", "obs value": 0}
{"compound": "CCCCCC(=O)CC [3-octanone]", "reported metric": "DF norm AVERAGE OR47a", "obs value": 0.1581}

The recorded DF norm AVERAGE OR47a for entry C=C1CC/C=C(\C)CC[C@@H]2[C@@H]1CC2(C)C [(-)-trans-caryophyllene] equals 0
